target: KRAS G12C-BRAF complex (Homo sapiens (Human), UniProt P01116+P62937, G12C); assay: KRAS-BRAF with CYPA (500 nM) interaction assay (TR-FRET, Example 136); conditions: KRAS G12C-BRAF disruption
Sequence (P01116-2 other isoform, or with tags, fused parts or gaps G12C): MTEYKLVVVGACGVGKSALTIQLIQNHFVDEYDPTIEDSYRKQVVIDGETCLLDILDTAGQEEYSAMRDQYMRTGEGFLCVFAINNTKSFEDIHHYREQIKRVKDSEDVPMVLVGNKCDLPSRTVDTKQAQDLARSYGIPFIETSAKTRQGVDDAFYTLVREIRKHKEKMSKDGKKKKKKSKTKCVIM
Sequence (P62937 whole entry): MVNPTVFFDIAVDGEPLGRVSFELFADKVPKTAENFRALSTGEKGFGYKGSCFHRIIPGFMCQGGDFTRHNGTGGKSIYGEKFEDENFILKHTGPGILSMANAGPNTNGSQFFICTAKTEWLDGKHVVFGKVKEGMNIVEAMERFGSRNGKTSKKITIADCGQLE
pIC50: −log10 of the molar value.
Measured pIC50 of individual entries

# molecule, pIC50
records = [
    ("CO[C@@H](C)c1ncc(N2CCN(C)CC2)cc1-c1c2c3cc(cc4c3n1CCO4)-c1csc(n1)C[C@H](NC(=O)[C@H]1[C@H](C)[C@@H]1C)C(=O)N1CCC[C@H](N1)C(=O)OCC(C)(C)C2 (atropisomer, axis not shown; (M))", 7.85),
    ("CO[C@@H](C)c1ncc(N2CCN(C)CC2)cc1-c1c2c3cc(cc4c3n1CCC4)-c1csc(n1)C[C@H](NC(=O)[C@H]1C[C@@H]1c1cncnc1)C(=O)N1CCC[C@H](N1)C(=O)OCC(C)(C)C2 (atropisomer, axis not shown; (M))", 7.67),
    ("CO[C@@H](C)c1ncc(N2CCN(CC(F)(F)F)CC2)cc1-c1c2c3cc(cc4c3n1CCO4)-c1csc(n1)C[C@H](NC(=O)[C@H]1[C@@H]3COC[C@@H]31)C(=O)N1CCC[C@H](N1)C(=O)OCC(C)(C)C2 (atropisomer, axis not shown; (M))", 7.92),
    ("CO[C@@H](C)c1ncc(N2CCN(CC(F)(F)F)CC2)cc1-c1c2c3cc(cc4c3n1CCO4)-c1csc(n1)C[C@H](NC(=O)[C@H]1C[C@@H]1C)C(=O)N1CCC[C@H](N1)C(=O)OCC(C)(C)C2 (atropisomer, axis not shown; (M))", 7.46),
    ("CO[C@@H](C)c1ncc(N2CCN(C)CC2)cc1-c1c2c3cc(cc4c3n1CC(F)(F)C4)-c1csc(n1)C[C@H](NC(=O)[C@H]1[C@@H]3COC[C@@H]31)C(=O)N1CCC[C@H](N1)C(=O)OCC(C)(C)C2 (atropisomer, axis not shown; (M))", 7.82),
    ("CO[C@@H](C)c1ncc(N2CCN(CC(F)(F)F)CC2)cc1-c1c2c3cc(cc4c3n1CC(F)(F)C4)-c1csc(n1)C[C@H](NC(=O)[C@H]1[C@H](C)[C@@H]1C)C(=O)N1CCC[C@H](N1)C(=O)OCC(C)(C)C2 (atropisomer, axis not shown; (M))", 7.49),
    ("CO[C@@H](C)c1ncc(N2CCN(C3CC3)CC2)cc1-c1c2c3cc(cc4c3n1CCO4)-c1csc(n1)C[C@H](NC(=O)[C@H]1[C@H](C)[C@@H]1C)C(=O)N1CCC[C@H](N1)C(=O)OCC(C)(C)C2 (atropisomer, axis not shown; (M))", 7.97),
    ("CO[C@@H](C)c1ncc(N2CCN(CC(F)(F)F)CC2)cc1-c1c2c3cc(cc4c3n1CCC4)-c1csc(n1)C[C@H](NC(=O)[C@H]1[C@H](C)[C@@H]1C)C(=O)N1CCC[C@H](N1)C(=O)OCC(C)(C)C2 (atropisomer, axis not shown; (M))", 7.75),
]

---

target: KRAS G12C-BRAF complex (Homo sapiens (Human), UniProt P01116+P62937, G12C); experiment: KRAS-BRAF with CYPA (500 nM) interaction assay (TR-FRET, Example 136); conditions: KRAS G12C-BRAF disruption
pIC50: −log10 of the molar value.

# compound, pIC50
data = [
    ("CO[C@@H](C)c1ncc(N2CCOCC2)cc1-c1c2c3cc(cc4c3n1CC(F)(F)C4)-c1csc(n1)C[C@H](NC(=O)[C@H]1C[C@@H]1C)C(=O)N1CCC[C@H](N1)C(=O)OCC(C)(C)C2 (atropisomer, axis not shown; (M))", 7.53),
    ("CO[C@@H](C)c1ncc(N2CCN3CCOC[C@@H]3C2)cc1-c1c2c3cc(cc4c3n1CCC4)-c1csc(n1)C[C@H](NC(=O)[C@H]1C[C@@H]1C)C(=O)N1CCC[C@H](N1)C(=O)OCC(C)(C)C2 (atropisomer, axis not shown; (M))", 7.49),
    ("CO[C@@H](C)c1ncc(N2CCN3CCOC[C@@H]3C2)cc1-c1c2c3cc(cc4c3n1CCC4)-c1csc(n1)C[C@H](NC(=O)[C@H]1C[C@@H]1c1cccnc1)C(=O)N1CCC[C@H](N1)C(=O)OCC(C)(C)C2 (atropisomer, axis not shown; (M))", 8.01),
    ("CO[C@@H](C)c1ncc(N2CCN(C)CC2)cc1-c1c2c3cc(cc4c3n1CCO4)-c1csc(n1)C[C@H](NC(=O)[C@@H]1C[C@H]1C1CC1)C(=O)N1CCC[C@H](N1)C(=O)OCC(C)(C)C2 (atropisomer, axis not shown; (M))", 7.76),
]

---

target: KRAS G12C-BRAF complex (Homo sapiens (Human), UniProt P01116+P62937, G12C); assay: KRAS-BRAF with CYPA (500 nM) interaction assay (TR-FRET, Example 136); conditions: KRAS G12C-BRAF disruption
pIC50: −log10 of the molar value.

# compound, pIC50
rows = [
    ("CO[C@@H](C)c1ncc(N2CCN(C)CC2)cc1-c1c2c3cc(cc4c3n1CC(C)(C)C4)-c1csc(n1)C[C@H](NC(=O)[C@H]1[C@H](C)[C@@H]1C)C(=O)N1CCC[C@H](N1)C(=O)OCC(C)(C)C2 (atropisomer, axis not shown; (M)) [Example 69]", 7.45),
    ("CO[C@@H](C)c1ncc(N2CCOCC2)cc1-c1c2c3cc(cc4c3n1CC(F)(F)C4)-c1csc(n1)C[C@H](NC(=O)[C@H]1[C@H](C)[C@@H]1C)C(=O)N1CCC[C@H](N1)C(=O)OCC(C)(C)C2 (atropisomer, axis not shown; (M)) [Example 76]", 8.04),
    ("CO[C@@H](C)c1ncc(N2CCOCC2)cc1-c1c2c3cc(cc4c3n1CCC4)-c1csc(n1)C[C@H](NC(=O)[C@@H]1C[C@H]1C1CC1)C(=O)N1CCC[C@H](N1)C(=O)OCC(C)(C)C2 (atropisomer, axis not shown; (M)) [Example 37]", 7.69),
    ("CO[C@@H](C)c1ncc(N2CCN(C)CC2)cc1-c1c2c3cc(cc4c3n1CC(F)(F)C4)-c1csc(n1)C[C@H](NC(=O)[C@H]1[C@H](C)[C@@H]1C)C(=O)N1CCC[C@H](N1)C(=O)OCC(C)(C)C2 (atropisomer, axis not shown; (M)) [Example 83]", 7.99),
    ("CO[C@@H](C)c1ncc(N2CCN(CCN3CCCC3=O)CC2)cc1-c1c2c3cc(cc4c3n1CCC4)-c1csc(n1)C[C@H](NC(=O)[C@H]1[C@H](C)[C@@H]1C)C(=O)N1CCC[C@H](N1)C(=O)OCC(C)(C)C2 (atropisomer, axis not shown; (M)) [Example 121]", 7.89),
    ("CO[C@@H](C)c1ncc(N2CCN(C)CC2)cc1-c1c2c3cc(cc4c3n1CCC4)-c1csc(n1)C[C@H](NC(=O)C1CCC(F)(F)C1)C(=O)N1CCC[C@H](N1)C(=O)OCC(C)(C)C2 (some centres unmarked) [Example 65]", 7.29),
    ("COC(C)c1ncc(N2CCN(C)CC2)cc1-c1c2c3cc(cc4c3n1CCO4)-c1csc(n1)CC(NC(=O)C1CC1C)C(=O)N1CCCC(N1)C(=O)OCC(C)(C)C2 (centres unmarked) [Example 17]", 7.60),
    ("CO[C@@H](C)c1ncc(N2CCN(C)CC2)cc1-c1c2c3cc(cc4c3n1CCC4)-c1csc(n1)C[C@H](NC(=O)[C@H]1[C@@H]3COC[C@@H]31)C(=O)N1CCC[C@H](N1)C(=O)OCC(C)(C)C2 (atropisomer, axis not shown; (M)) [Example 15]", 7.92),
]

---

Below: a set of entries, each annotated with reported pIC50.
Test system: SW620 cells (KRAS G12V)
Assay: Cell viability assay (Cell Counting Kit-8, 3-day)
Assay type: cell-based, human
Details: Homo sapiens, SW-620; SW620, 72 hrs incubation
Experimental: The purpose of this cellular assay was to determine the effects of test compounds on the proliferation of human cancer cell lines NCI-H358 (ATCC-CRL5807) cells, AGS (ATCC-CRL-1739) cells, SW620 (ATCC-CCL-227) over a 3-day treatment period by quantifying the amount of NADPH present at endpoint using Cell Counting Kit-8. Cells were seeded at 5,000 cells/well (NCI-H358), 2,000 cells/well (AGS) 2,000 cells/well (SW620) in 96-well assay plates (Corning-3699) and incubated overnight. […]
pIC50: −log10 of the molar value.
assay_metric: pIC50

# molecule, target_of_assay, assay_metric, observed_value
measured = [
    ("CO[C@@H](C)c1ncc(N2CCOCC2)cc1-c1c2c3cc(cc4c3n1CCCC4)-c1csc(n1)C[C@H](NC(=O)[C@H]1[C@H](C)[C@@H]1C)C(=O)N1CCC[C@H](N1)C(=O)OCC(C)(C)C2", "SW620 cells (KRAS G12V)", "pIC50", 8.15),
    ("CO[C@@H](C)c1ncc(N2CCOCC2)cc1-c1c2c3cc(cc4c3n1CCC4)-c1csc(n1)C[C@H](NC(=O)[C@H]1[C@@H]3COC[C@@H]31)C(=O)N1CCC[C@H](N1)C(=O)OCC(C)(C)C2 (atropisomer, axis not shown; (M))", "SW620 cells (KRAS G12V)", "pIC50", 9.10),
    ("CO[C@@H](C)c1ncc(N2CCN(C)CC2)cc1-c1c2c3cc(cc4c3n1CCCO4)-c1csc(n1)C[C@H](NC(=O)[C@H]1[C@H](C)[C@@H]1C)C(=O)N1CCC[C@H](N1)C(=O)OCC(C)(C)C2 (atropisomer, axis not shown; (M))", "SW620 cells (KRAS G12V)", "pIC50", 9.15),
    ("CO[C@@H](C)c1ncc(N2CCN(C)CC2)cc1-c1c2c3cc(cc4c3n1CC(F)(F)C4)-c1csc(n1)C[C@H](NC(=O)[C@H]1C[C@@H]1C)C(=O)N1CCC[C@H](N1)C(=O)OCC(C)(C)C2 (atropisomer, axis not shown; (M))", "SW620 cells (KRAS G12V)", "pIC50", 8.54),
]
